Cited source: the supplement of paper PMC6757056

B1: library; a variant is named by its letters at N, in order (parent)
chain: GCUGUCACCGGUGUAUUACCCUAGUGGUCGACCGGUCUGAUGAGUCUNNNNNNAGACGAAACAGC

variants of: B1; test: normalized RNA/DNA level with ligand (relative to sTRSVctl = 100) (log10 (% of sTRSVctl)); ligand: hypoxanthine (xanthine aptamer); higher = less ribozyme self-cleavage, higher mRNA level; conditions: ligand concentration (+) RNA-Seq: 5 mM, HEK293T, reporter: mCherry (pCS4076), ligand present: yes
Each entry below lists one item and its recorded normalized RNA/DNA level with ligand (log10) value.
readout_type: normalized RNA/DNA level with ligand (log10)

{"mutation_id": "UCGUCA", "value": 1.99}
{"mutation_id": "GCCAGA", "value": 1.91}
{"mutation_id": "ACGUUG", "value": 1.79}
{"mutation_id": "GCUGAA", "value": 1.91}
{"mutation_id": "UGCUAG", "value": 1.94}
{"mutation_id": "CAUGGU", "value": 1.82}
{"mutation_id": "UUCUAU", "value": 1.95}
{"mutation_id": "UCUCGG", "value": 1.92}
{"mutation_id": "AGCUAG", "value": 1.83}
{"mutation_id": "UAGACC", "value": 1.98}
{"mutation_id": "ACGAUG", "value": 1.73}
